Can you tell me %Inh for the items I'm about to list?
test system: EPHB1; settings: concentration: 1 μM,replicates: in singlicate; n = 1;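 further: KINOMEscan kinase panel screen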
Express the reported value numerically, then name its unit.

Exercise: Look up %Inh with EPHB1 for this molecule: CC(=O)Nc1ccc(-c2cc3ncnc(SCC(=O)O)c3s2)cc1
Key: 0%

Exercise: Param readout= %Inh; system= EPHB1; entry= NC(=O)Nc1sc(-c2ccc(F)cc2)cc1C(N)=O [GW789449] ; returns value.
Key: 24%

Exercise: What %Inh appears in the records for this molecule with EPHB1? CCOC(=O)N1CCC(n2cnc(-c3ccc(F)cc3)c2-c2ccnc(N)n2)CC1 [SB-219952]
Key: 0%

Exercise: Give EPHB1 %Inh for CSc1nccc(-c2c(-c3ccc(F)cc3)ncn2CCCN2CCOCC2)n1.Cl [SB-217146]
Key: 11%

Exercise: Please state recorded %Inh (tested on EPHB1) of Cl.Cl.NC[C@H](CC1CCCCC1)NC(=O)c1ccc(-c2ccnc3[nH]ccc23)s1 [GSK1581428]
Key: 6%

Exercise: Look up %Inh with EPHB1 for this molecule: C[C@@H](Oc1cc(-n2cnc3ccc(-c4ccncc4)cc32)sc1C(N)=O)c1ccccc1Cl [GSK483724]
Key: 26%

Exercise: Lab note: need %Inh for c1ccc(Oc2ccc(Nc3ccnc4ccc(-c5ccccn5)cc34)cc2)cc1 [GW407034] on EPHB1, anyone have it?
Key: 0%

Exercise: Query %Inh on EPHB1 for Cn1cc(-c2cccc3c(N)c(C(N)=O)nnc23)cn1
Key: 4%

Exercise: API: value(readout= %Inh, system= EPHB1, query= O=C(Nc1ccccc1)c1cccc(Oc2ccc3nccn3n2)c1 )
Key: 13%

Exercise: So what %Inh did O=C(Nc1cccc(C(F)(F)F)c1)c1cccc(Oc2ccc3nccn3n2)c1 get with EPHB1?
Key: 20%

Exercise: Param readout = %Inh; param system = EPHB1; param query = CC(=O)c1c(-c2ccncc2)[nH]c(-c2ccncc2)c1C [GW493036] ; response: value
Key: 12%

Exercise: Can you look up %Inh on EPHB1 for CS(=O)c1ccc(-c2coc3ccc(-c4n[nH]c(=O)o4)cc23)cc1 (stereo not drawn) ?
Key: 0%

Exercise: Given the entry CS(=O)(=O)c1cccc(CNc2nc(Nc3ccc4c(c3)[C@@H]3C[C@@H]4CNC3=O)ncc2C(F)(F)F)c1 , what %Inh was observed with EPHB1?
Key: 40%

Exercise: Reported %Inh for EPHB1, given COc1cc(Nc2nccc(N3CCC(NC(=O)c4cccc(C#N)c4)C3)n2)cc(OC)c1OC (stereo not drawn) [GSK1379751] ?
Key: 4%

Exercise: # query: %Inh | item CN1CCN(CCCNc2nccc(-c3c(-c4ccc(F)cc4)nn4cc(C(N)=O)ccc34)n2)CC1 [GW622475] | system: EPHB1
Key: 35%

Exercise: Report %Inh for CCNCC(Cc1ccccc1)NC(=O)c1cc(Br)c(-c2ccnc3[nH]ccc23)s1.Cl.Cl (stereo not drawn) [GSK1383280] tested on EPHB1.
Key: 7%

Exercise: Query %Inh on EPHB1 for O=C1NCCc2[nH]c(-c3ccncc3)cc21
Key: 0%

Exercise: Could you share what %Inh was measured for Cn1ccc2ncnc(Oc3ccc(NC(=O)Nc4cccc(C(F)(F)F)c4)c(Cl)c3)c21 , tested on EPHB1?
Key: 70%

---

system: NEK2; conditions: concentration: 1 μM,replicates: in singlicate; n = 1
Kindly supply the reported %Inh values for the records listed here.
Entry format: amount then unit.

Exercise: # query: %Inh of entry FC(F)(F)c1cc(Br)cc(Nc2nccc(-c3cnn4ncccc34)n2)c1
Key: 1%

Exercise: What %Inh value was documented for this compound, CS(=O)(=O)c1cccc(CNc2nc(Nc3ccc4c(c3)[C@@H]3C[C@@H]4CNC3=O)ncc2C(F)(F)F)c1 ?
Key: 0%

Exercise: Which %Inh value is on record for Cn1ccc2ncnc(Oc3ccc(NC(=O)Nc4cnn(C(C)(C)C)c4)c(Cl)c3)c21 ?
Key: 0%

Exercise: Give its %Inh value. Item: CN(c1cccc(CNc2nc(Nc3ccc4c(c3)CC(=O)N4)ncc2C(F)(F)F)c1)S(C)(=O)=O
Key: 0%

Exercise: Which %Inh value is on record for Cc1n[nH]c2cc(Nc3ccnc(Nc4cccc(CN5CCOCC5)c4)n3)ccc12 ?
Key: 0%

Exercise: Look up %Inh: CC(=O)Nc1ccc(-c2cc3ncnc(SCC(=O)O)c3s2)cc1
Key: 1%

Exercise: Which %Inh is reported for this compound? CC(=O)c1c(-c2ccncc2)[nH]c(-c2ccncc2)c1C
Key: 0%

Exercise: What measured %Inh goes with CN1CCN(CCCNc2nccc(-c3c(-c4ccc(F)cc4)nn4cc(C(N)=O)ccc34)n2)CC1 ?
Key: 8%

Exercise: Could you share which %Inh value was measured for Cl.Nc1n[nH]c2cc(-c3ccccn3)ccc12 ?
Key: 0%

Exercise: Quick one: %Inh of COc1cccc(C2=C(Nc3cccc(Cl)c3)C(=O)NC2=O)c1 ?
Key: 13%

Exercise: Which %Inh is listed for COc1cc2ncn(-c3cc(OCC4CCCCC4)c(C(N)=O)s3)c2cc1OC ?
Key: 40%

Exercise: // returns reported %Inh for input COc1cc2c(Nc3ccc(NC(=O)c4ccccc4)cc3)ncnc2cc1OCCCN1CCOCC1
Key: 0%

Exercise: Could you share which %Inh value was measured for COc1cc2nccc(Nc3ccc(Oc4ccccc4)cc3)c2cc1OC.Cl ?
Key: 0%

Exercise: Suppose we examine the compound Cc1ccn2nc(-c3ccc(F)cc3)c(-c3ccncc3)c2c1.Cl ; what %Inh value has been reported?
Key: 0%

Exercise: Requested field: %Inh. Item: Cc1ccc(CC(=O)N2CCc3cc(-c4cn(C)c5ncnc(N)c45)ccc32)cc1
Key: 96.9%

Exercise: Look at this compound and give its reported %Inh. Cl.c1ccc(Oc2ccc(Nc3ccnc4cc(-c5ccc(CN6CCNCC6)o5)ccc34)cc2)nc1
Key: 6%

Exercise: Field request: %Inh | item: Cl.Cl.NC[C@H](CC1CCCCC1)NC(=O)c1ccc(-c2ccnc3[nH]ccc23)s1
Key: 0%

Exercise: If you can, please state the reported %Inh value of Cc1ccc2c(-c3ccnc(Nc4ccc(C(F)(F)F)cc4)n3)cnn2n1 .
Key: 0%

Exercise: Please look up its %Inh: C[C@@H](Oc1cc(-n2cnc3ccc(-c4ccncc4)cc32)sc1C(N)=O)c1ccccc1Cl
Key: 86%

Exercise: # lookup: %Inh of COc1cc(Nc2nccc(N3CCC(NC(=O)c4cccc(C#N)c4)C3)n2)cc(OC)c1OC (centres unmarked)
Key: 13%

Exercise: Fill in the blank: the reported %Inh of Cn1ccc2ncnc(Oc3ccc(NC(=O)Nc4ccnc(C(F)(F)F)c4)c(Cl)c3)c21 is ____.
Key: 0%

Exercise: Given the compound Cn1ccc2ncnc(Oc3ccc(NC(=O)Nc4cccc(C(F)(F)F)c4)c(F)c3)c21 , what is its reported %Inh?
Key: 15%

Exercise: Which %Inh is reported for this compound? CCCC(=O)Nc1n[nH]c2ncccc12
Key: 0%

Exercise: %Inh for COC(=O)c1cccc(NC(=O)NC2CCN(c3ccnc(Nc4cc(OC)c(OC)c(OC)c4)n3)C2)c1 (centres unmarked) ?
Key: 22%

Exercise: I would be grateful if you could share the reported %Inh for CC(C)S(=O)(=O)N1CCN(Cc2ccc3c(c2)nc(NC(=O)c2ccsc2)n3C[C@H](O)c2ccccc2)CC1 .
Key: 0%

Exercise: Entry O=C(Nc1ccc(Oc2ccc3nc(NC(=O)C4CC4)cn3n2)c(F)c1)c1cccn(-c2ccccc2)c1=O has what %Inh?
Key: 0%

Exercise: Reported %Inh, compound COC(=O)c1cccc(NC(=O)NC2CCN(c3ccnc(NCc4ccc(F)cc4)n3)CC2)c1 : ____
Key: 0%

Exercise: Param item = CCn1c(-c2nonc2N)nc2cncc(CNC3CCNCC3)c21.Cl ; retrieve measured %Inh.
Key: 0%

Exercise: Fill blank: measured %Inh of the compound O=C(NOCC1CC1)c1cc(Br)c(F)c(F)c1Nc1ccc(I)cc1Cl is ____.
Key: 0%

Exercise: Consider the compound O=C(Nc1n[nH]c2cc(-c3ccco3)ccc12)C1CC1 and give its measured %Inh.
Key: 0%

Exercise: Sample C[C@@H](Oc1cc(-n2cnc3cc(-c4cnn(C)c4)ccc32)sc1C(N)=O)c1ccccc1Cl — what was its %Inh?
Key: 99.2%

Exercise: Given the compound CS(=O)c1ccc(-c2coc3ccc(-c4n[nH]c(=O)o4)cc23)cc1 (centres unmarked) , what is its reported %Inh?
Key: 0%

Exercise: Looking for the measured %Inh of Cc1cccc2c(-c3ccncc3)c(-c3ccc(F)cc3)nn12.Cl , can you help?
Key: 0%

Exercise: Returns the measured %Inh for the input compound. Input: C[C@@H]1CNc2c(sc3ccc4nc(-c5ccc(O)cc5)ccc4c23)C(=O)N1
Key: 0%

Exercise: Item Cn1ccc2ncnc(Oc3ccc(NC(=O)Nc4cccc(C(F)(F)F)c4)c(Cl)c3)c21 has what recorded %Inh?
Key: 0%
